# experimental_system: TraI (Escherichia coli plasmid R1, UniProt Q6TDU5 1-1756)
# assay_overview: fluorescence intensity titration; unit not printed with value; nM from titration range; EMSA: 10 mM Tris-HCl pH 7.5, 50 mM NaCl, 0.005% NP-40, 1 mM DTT, 1 mM EDTA, 25 C, 20 min (DNA 20 nM in Methods, 4 nM in Fig 5 legend); fluorescence: 20 mM Tris-HCl pH 7.5, 100 mM NaCl, 1 mM EDTA, 25 C, 4 nM oriT17*, 0-100 nM TraI
# setup_conditions: protein: recombinant; label: 3'-TAMRA
measured_endpoint: Kd (nM)
The reply should be a number in nM, with the unit left off.

Recorded Kd for TTTGCGTGGGGTGTGGT (ssDNA) [oriT17*] , please?
4.05

Hello, the source for this data is paper PMC4949242, in case you need it.
